// provenance: patent US20260199309A1

Listing of recorded Kv3.1 pEC50 by entry.
Molecular target: human Kv3.1 channels (hKv3.1) (Homo sapiens)
Construct: expressed in transfected cells
Sequence (P48547 1-511): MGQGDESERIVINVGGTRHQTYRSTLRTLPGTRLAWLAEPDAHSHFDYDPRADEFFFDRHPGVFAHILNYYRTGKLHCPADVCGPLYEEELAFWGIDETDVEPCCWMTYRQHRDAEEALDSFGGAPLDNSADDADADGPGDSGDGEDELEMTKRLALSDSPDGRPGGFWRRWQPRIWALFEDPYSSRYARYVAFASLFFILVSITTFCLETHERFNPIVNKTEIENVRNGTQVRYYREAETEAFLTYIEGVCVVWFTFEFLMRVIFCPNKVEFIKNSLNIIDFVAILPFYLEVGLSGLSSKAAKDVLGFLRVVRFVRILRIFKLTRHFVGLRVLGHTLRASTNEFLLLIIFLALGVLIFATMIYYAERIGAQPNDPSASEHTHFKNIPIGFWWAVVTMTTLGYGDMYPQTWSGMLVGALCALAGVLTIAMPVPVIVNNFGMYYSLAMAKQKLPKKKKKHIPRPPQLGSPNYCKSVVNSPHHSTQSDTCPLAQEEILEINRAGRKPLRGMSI
Assay: Kv3.1 channel modulation, IonWorks Quattro planar array electrophysiology
Format: cell-based
Details: HEK-293 cells expressing human Kv3.1; currents at −15 mV voltage step; normalised to 50 microM reference compound and vehicle
measured_parameter: Kv3.1 pEC50

Cc1ccc(Oc2ccc(N3C(=O)NC(C)(C)C3=O)c(N)n2)cc1OC(F)(F)F [Example 7] ... 5.6
CC[C@H]1NC(=O)N(c2ccc(Oc3ccc(C#N)c(C(C)C)c3)nc2N)C1=O [Example 13] ... 5.5
CC[C@H]1NC(=O)N(c2ccc(Oc3ccc(C)c(OC(F)(F)F)c3)nc2N)C1=O [Example 8] ... 5.5
CC1(C)NC(=O)N(c2ccc(Oc3cccc4c3C3(CC3)CO4)nc2N)C1=O [Example 3] ... 6.3
CC1(C)NC(=O)N(c2ccc(Oc3ccc(C#N)c(OC(F)(F)F)c3)nc2N)C1=O [Example 10] ... 5.6
CC[C@H]1NC(=O)N(c2ccc(Oc3ccc(C#N)c(OC(F)(F)F)c3)nc2N)C1=O [Example 11] ... 5.5
CC[C@H]1NC(=O)N(c2ccc(Oc3cccc4c3C3(CC3)CO4)nc2N)C1=O [Example 4] ... 6.0
CC[C@H]1NC(=O)N(c2ccc(Oc3ccc(C)c4c3C3(CC3)CO4)nc2N)C1=O [Example 2] ... 6.3
Cc1ccc(Oc2ccc(N3C(=O)NC(C)(C)C3=O)c(N)n2)c2c1OCC21CC1 [Example 1] ... 6.6
